test: Cytotoxicity counterscreen for NFkB agonists and antagonists (AID 624476); conditions: NFkB reporter cell line viability counterscreen; series mostly up to 46.1 µM;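 further: cells exposed to compound for 48 hours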
Results filed as inconclusive are left out. The source made the active and inactive calls. The call rests on the fitted dose curve; in most records, active means well fitted curve in the direction sought with a large enough effect; inconclusive means small, poorly fitted or top-dose-only effect, or another doubt; inactive means no such curve, though single readings can be large or run the other way.
Outcome (select one): active, inactive

Sample answers from the record:
compound | assigned-class
COc1nc(C)cnc1NS(=O)(=O)c1cccnc1-c1ccc(-c2nnco2)cc1 | inactive
CN(C)CCN(C)C(=O)c1ccc(NC(=O)Nc2ccc(-c3nc(N4CCOCC4)c4ccn(CC(F)(F)F)c4n3)cc2)cc1 | active
Nc1ccc(-c2ccc3ncc4ccc(=O)n(-c5cccc(C(F)(F)F)c5)c4c3c2)cn1 | active
CCCCc1ccc(NS(=O)(=O)c2ccc(C)c(C(=O)N3CCN(c4cccc(C)c4C)CC3)c2)cc1 | active
CCC(=O)N1CCN(c2ccc(-n3c(=O)ccc4cnc5ccc(-c6cnc7ccccc7c6)cc5c43)cc2C(F)(F)F)CC1 | active

Req: Short answer needed: outcome of this test for COc1ccc2c(c1)CC[C@H]1[C@@H]2CC[C@]2(C)[C@@H](NCCCCCCN3C(=O)C=CC3=O)CC[C@H]12 ?
Resp: inactive

Req: Short answer needed: outcome of this test for Cc1ccc(NC(=O)c2ccc(CN3CCN(C)CC3)cc2)cc1Nc1nc(-c2cccnc2)cs1 ?
Resp: inactive

====

test system: CP260; assay: qHTS profiling for inhibitors of Plasmodium falciparum proliferation (AID 504749); further: nearly all actives have a fitted effect of over 60% in size; conditions: P. falciparum in erythrocytes, SYBR Green DNA, 72 h; series mostly up to 28.7 µM
Records with an inconclusive call do not appear. Activity calls are given as the source filed them. Calls follow the shape of the dose curve; as a rule, active = well fitted inhibition curve with a large enough effect; inconclusive = small, poorly fitted or top-dose-only effect; inactive = flat fitted curve, though single readings scatter.
Outcome (select one): active, inactive

compound | assigned-class
N#Cc1c(N(CC(=O)O)CC(=O)O)sc(C(=O)O)c1CC(=O)O | inactive
O=C1C(CCC(O)c2ccc(F)cc2)C(c2ccc(O)cc2)N1c1ccc(F)cc1 (stereo not drawn) | inactive

Req: Short answer needed: outcome of this test for COc1c(C)c2c(c(O)c1CC=C(C)CCC(=O)OCCN1CCOCC1)C(=O)OC2 ?
Resp: active

Req: Short answer needed: outcome of this test for CS(=O)(=O)c1ccc(C2=C(c3ccccc3)C(=O)OC2)cc1 ?
Resp: inactive

Req: Short answer needed: outcome of this test for O=C(O)c1nc(=O)[nH]c(=O)[nH]1 ?
Resp: inactive

Req: Short answer needed: outcome of this test for COc1ccnc(CS(=O)c2nc3ccc(OC(F)F)cc3[nH]2)c1OC (stereo not drawn) ?
Resp: inactive

Req: Short answer needed: outcome of this test for CN1CCN2c3ncccc3Cc3ccccc3C2C1 (stereo not drawn) ?
Resp: inactive

Req: Short answer needed: outcome of this test for Cc1cc2nc3c(=O)[nH]c(=O)nc-3n(CC(O)C(O)C(O)CO)c2cc1C (stereo not drawn) ?
Resp: inactive

====

Field: parasite growth, % of control (lower = inhibition). Provide a value for each of the molecules that follow.
test: qHTS profiling of the MIPE4 collection as inhibitors of Plasmodium falciparum (DD2) proliferation (Rep 2) (AID 743346); conditions: P. falciparum Dd2 in erythrocytes, SYBR Green DNA, 72 h; at 28.5 µM (top of the series) unless noted
Give your result as the value with the unit written after it.

Each of the following entries comes with a recorded value; kindly state parasite growth, % of control (lower = inhibition) for each.
1. COc1ccc(CCN(C)CCCOc2ccc(S(=O)(=O)c3[nH]c4ccccc4c3C(C)C)cc2)cc1OC
2. O=S(=O)(O)c1ccc2cc(N=Nc3cc(S(=O)(=O)O)c4cccnc4c3O)ccc2c1
3. CC(C)c1c(C(=O)Nc2ccccc2)c(-c2ccccc2)c(-c2ccc(F)cc2)n1CC[C@H](O)C[C@@H](O)CC(=O)O
4. C[C@H]1[C@H](O)O[C@@H]2O[C@@]3(C)CC[C@@H]4[C@H](C)CC[C@@H]1[C@@]24OO3
5. CCOC(=O)N1CCN([N+]([O-])=NOc2cc(ON=[N+]([O-])N3CCN(C(=O)OCC)CC3)c([N+](=O)[O-])cc2[N+](=O)[O-])CC1
6. CN1CCC[C@H]1CCO[C@](C)(c1ccccc1)c1ccc(Cl)cc1

Resp:
["16.3%", "77.8%", "17.6%", "13.8%", "49.8%", "23.9%"]

====

test: Quantitative High-Throughput drug screen in 47 multiple myeloma cell lines against the NCATS MIPE library collection: OPM1_PLB cell viability assay (AID 1918989); details: CellTiter-Glo, 48 h; series mostly up to 45.8 µM; further: nearly all actives have a fitted effect of over 40% in size
Inconclusive results are not listed. Activity calls are given as the source filed them. The call rests on the fitted dose curve; in most records, active means well fitted cell-killing curve with a large enough effect; inconclusive means small, poorly fitted or top-dose-only effect, or effect the other way; inactive means no such curve, though single readings can be large or run the other way.
Outcome (select one): TRUE for active, FALSE for inactive

molecule | assigned-class
Cc1ccccc1C(=O)c1ccc(Nc2ccc(Br)cc2N)cc1Cl | TRUE
Nc1nc(Cl)nc2c1ncn2[C@@H]1O[C@H](CO)[C@@H](O)[C@H]1F | TRUE
COc1cc2nc(-c3cc(F)ccc3O)nc(N[C@@H]3CNC[C@@H]3C(C)(C)O)c2cc1OC | TRUE

Req: Short answer needed: outcome of this test for CCC[C@H](N[C@@H](C)C(=O)N1[C@@H]2CCCC[C@H]2C[C@H]1C(=O)O)C(=O)OCC ?
Resp: FALSE

Req: Short answer needed: outcome of this test for C[C@@H]1CC=CC=CC=CC=C[C@@H](O[C@@H]2O[C@H](C)[C@@H](O)[C@H](N)[C@H]2O)C[C@@H]2O[C@](O)(C[C@@H](O)C[C@@H]3O[C@@H]3C=CC(=O)O1)C[C@H](O)[C@@H]2C(=O)O ?
Resp: TRUE

Req: Short answer needed: outcome of this test for COC1CCC(C(=O)c2ccc3nc4c(cc3c2)CCCO4)CC1 (centres undefined) ?
Resp: TRUE

Req: Short answer needed: outcome of this test for CC=C1C2C=C(C)CC1(N)c1ccc(=O)[nH]c1C2 (centres undefined) ?
Resp: FALSE

Req: Short answer needed: outcome of this test for Cc1ccc(NC(=O)c2ccc(CN3CCN(C)CC3)cc2)cc1Nc1nc(-c2cccnc2)cs1 ?
Resp: TRUE

Req: Short answer needed: outcome of this test for O=C(Nc1cccc(C(F)(F)F)c1)Nc1cc(S(=O)(=O)NC2CC2)ccc1-c1ccsc1 ?
Resp: TRUE

====

assay: Quantitative High-Throughput drug screen in 47 multiple myeloma cell lines against the NCATS MIPE library collection: MM1R_ATCC cell viability assay (AID 1918981); settings: MM1R multiple myeloma cells, CellTiter-Glo viability, 48 h; series mostly up to 45.8 µM; further: nearly all actives have a fitted effect of over 35% in size
Records with an inconclusive call do not appear. Calls of active or inactive are those of the source. The call rests on the fitted dose curve; in most records, active means well fitted cell-killing curve with a large enough effect; inconclusive means small, poorly fitted or top-dose-only effect, or effect the other way; inactive means no such curve, though single readings can be large or run the other way.
Outcome (select one): active, inactive

sample-smiles | assigned-class
O=S(=O)(O)c1ccc2cc(N=Nc3cc(S(=O)(=O)O)c4cccnc4c3O)ccc2c1 | active
CC(C)(F)C[C@H](N[C@@H](c1ccc(-c2ccc(S(C)(=O)=O)cc2)cc1)C(F)(F)F)C(=O)NC1(C#N)CC1 | inactive
CCCCCCCCCCCCCCCC(=O)O[C@H]1[C@@H](O)[C@@H](O)[C@@H]([C@H](NC(=O)[C@@H]2C[C@@H](CCC)CN2C)[C@H](C)Cl)O[C@@H]1SC | inactive

Req: Short answer needed: outcome of this test for Cc1ccc(NC(=O)Nc2cc(C(F)(F)F)ccc2F)cc1Nc1ccc2c(c1)NC(=O)C2=Cc1ccc[nH]1 ?
Resp: active

Req: Short answer needed: outcome of this test for CN(C)CCCNC(=O)c1ccc(-c2cc(O)c3ncccc3c2)cc1 ?
Resp: active

Req: Short answer needed: outcome of this test for OC[C@H]1O[C@@H](O[C@H]2[C@@H](O)[C@@](O)(CO)O[C@@H]2CO)[C@H](O)[C@@H](O)[C@@H]1O ?
Resp: inactive

Req: Short answer needed: outcome of this test for Cc1nc2c([nH]1)CCN(C(=O)c1ccc(NC(=O)c3ccccc3-c3ccccc3)cc1)c1ccccc1-2 ?
Resp: inactive

Req: Short answer needed: outcome of this test for COc1cc(Cl)cn2c(-c3cccc(NC4CNC4)n3)cnc12 ?
Resp: active

====

experiment: qHTS Screen of the MIPE 4.0 Collection Against Ewings Sarcoma (EW8) (AID 1259255); conditions: EW8 Ewing sarcoma viability, CellTiter-Glo, 48 h; series mostly up to 45.8 µM; further: nearly all actives have a fitted effect of over 35% in size;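 on viability: 100% = DMSO-treated cells and 0% = medium-only wells without cells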
Inconclusive results are not listed. Calls of active or inactive are those of the source. Calls come from the whole dose curve; as a rule, active = well fitted inhibition curve with a large enough effect; inconclusive = small, poorly fitted or top-dose-only effect; inactive = no such curve, though single readings can be large or run the other way.
Outcome (select one): 1 (active), -1 (inactive)

compound | assigned-class
NC(=O)c1nnn(Cc2cc(Cl)c(C(=O)c3ccc(Cl)cc3)c(Cl)c2)c1N | 1
CC[C@H](C)C(=O)O[C@H]1C[C@H](O)C=C2C=C[C@H](C)[C@H](CC[C@@H](O)C[C@@H](O)CC(=O)O)[C@H]21 | -1
O=C1C(CCC(O)c2ccc(F)cc2)C(c2ccc(O)cc2)N1c1ccc(F)cc1 (stereo not given) | -1
CN(C)CCN(C)C(=O)c1ccc(NC(=O)Nc2ccc(-c3nc(N4CCOCC4)c4ccn(CC(F)(F)F)c4n3)cc2)cc1 | 1
COc1ccc2ccc(=O)oc2c1CC=C(C)C | 1

Req: Short answer needed: outcome of this test for CN[C@@H](C)[C@H]1[C@H](O)C[C@@]2(C)[C@@H]3CC[C@H]4C(C)(C)[C@@H](NC)CC[C@@]45C[C@@]35CC[C@]12C ?
Resp: -1

Req: Short answer needed: outcome of this test for COC(=O)Nc1ccc(-c2nc(N3CCOCC3)c3cnn(C4CCN(C(=O)OC)CC4)c3n2)cc1 ?
Resp: 1
